Test system: OVCAR-8 ovarian
Assay: NCI tumour cell line growth inhibition, 48 h
quantity: TGI

1. COc1cc(C2c3cc4c(cc3OC(N3CCOCC3)C2C)OCO4)ccc1O (centres undefined) :: > 100 µM
2. Cc1cc(N(CCC#N)CCC#N)ccc1N=Nc1ccc(S(N)(=O)=O)cc1 :: > 100 µM
3. COc1cccc(-c2cc(-c3cccc(NS(C)(=O)=O)c3)nc(N)c2C#N)c1O :: > 100 µM
4. C=C1C(=O)O[C@@H]2C(=O)[C@@H](C)CCC/C(C)=C/CC[C@@]3(C)O[C@@H]3C[C@@H]12 :: > 100 µM

====

Test system: COLO 205 colon
Test: NCI tumour cell line growth inhibition, 48 h
Listed next: entries and their corresponding TGI.
quantity: TGI

1) O=C(N/N=C(/COc1ccc(Cl)cc1)N=Cc1ccncc1)c1ccncc1 :: > 100 µM
2) CNS(=O)(=O)NNS(=O)(=O)c1ccccc1 :: > 100 µM
3) OCCN(CCO)c1ncnc2c1ncn2Cc1ccc(CCl)cc1 :: 46.8 µM
4) CCOC1Oc2ccccc2C(=O)/C1=C/Nc1ccc(C(C)=O)cc1 (stereo not given) :: > 100 µM
5) Cc1nc2c(ccc3ncccc32)[nH]1 :: > 100 µM

Data provenance is PubChem BioAssay (NCI).
